test system: TAB109; test: qHTS profiling for inhibitors of Plasmodium falciparum proliferation (AID 504749); also: nearly all actives have a fitted effect of over 60% in size; conditions: P. falciparum in erythrocytes, SYBR Green DNA, 72 h; series mostly up to 28.7 µM
Results filed as inconclusive are left out. The source made the active and inactive calls. Calls follow the shape of the dose curve; as a rule, active = well fitted inhibition curve with a large enough effect; inconclusive = small, poorly fitted or top-dose-only effect; inactive = flat fitted curve, though single readings scatter.
Allowed answers: active, inactive

# count of solved cases: 6
compound | groupLabel
O=c1ccc2ccccc2o1 | inactive
NCCc1ccn[nH]1 | inactive
CCCCCC=CCC=CCCCCCCCC(=O)OCC | inactive
Cc1ccnc(NS(=O)(=O)c2ccc(N)cc2)n1 | inactive
CNCCC(Oc1ccccc1C)c1ccccc1 (configuration not stated) | inactive
C[C@@H]1CN(CCCn2c3ccccc3c3ccccc32)C[C@H](C)N1 | active

API: the following record is the query input.
Task item: Any idea what this test logged for CCCCOc1cc(C(=O)NCCN(CC)CC)c2ccccc2n1 ?
Reply: inactive

Cited source: PubChem BioAssay (NCATS)
